Target: mGluR4 (Homo sapiens, UniProt Q14833)
Sequence (Q14833 33-912 limits assumed): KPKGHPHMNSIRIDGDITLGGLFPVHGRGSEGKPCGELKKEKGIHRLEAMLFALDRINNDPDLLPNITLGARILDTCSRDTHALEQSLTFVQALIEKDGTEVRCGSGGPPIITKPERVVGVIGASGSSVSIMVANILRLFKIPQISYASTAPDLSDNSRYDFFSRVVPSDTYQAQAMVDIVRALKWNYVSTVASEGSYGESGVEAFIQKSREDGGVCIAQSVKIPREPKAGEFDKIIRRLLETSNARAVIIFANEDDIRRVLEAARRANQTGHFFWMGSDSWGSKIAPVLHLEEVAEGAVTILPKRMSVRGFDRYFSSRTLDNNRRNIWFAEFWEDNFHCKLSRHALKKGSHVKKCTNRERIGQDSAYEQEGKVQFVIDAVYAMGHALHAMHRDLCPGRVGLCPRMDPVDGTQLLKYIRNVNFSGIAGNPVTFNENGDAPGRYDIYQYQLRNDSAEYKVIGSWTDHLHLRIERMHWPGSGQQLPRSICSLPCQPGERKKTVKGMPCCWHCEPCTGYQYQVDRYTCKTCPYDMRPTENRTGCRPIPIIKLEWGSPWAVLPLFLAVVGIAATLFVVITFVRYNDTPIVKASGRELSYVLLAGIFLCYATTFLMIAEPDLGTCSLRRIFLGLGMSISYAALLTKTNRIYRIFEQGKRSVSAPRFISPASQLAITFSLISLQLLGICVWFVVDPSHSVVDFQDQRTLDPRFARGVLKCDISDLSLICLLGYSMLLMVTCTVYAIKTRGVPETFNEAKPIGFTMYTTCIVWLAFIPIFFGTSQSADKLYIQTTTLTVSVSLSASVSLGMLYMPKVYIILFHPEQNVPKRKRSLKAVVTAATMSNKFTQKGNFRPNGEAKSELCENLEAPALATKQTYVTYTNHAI
Assay: mGlu4 PAM potentiation assay, CHO cells transfected with human mGluR4, Ca2+-sensitive dye fluorescence
RECORDED_METRIC: pEC50
Give bare numbers, as −log10 of the molar value.

Record excerpt, results attached:
# MOLECULE, TARGET_ENTITY, pEC50
rows = [
    ("O=C(Nc1ccc2c(OCC3CCOC3)nccc2c1)c1ccncn1 (stereo not drawn)", "mGluR4 (Homo sapiens, UniProt Q14833)", 6.65),
    ("O=C(Nc1cc(F)c2c(OCC3CCOCC3)nccc2c1)c1ncccc1C(F)(F)F", "mGluR4 (Homo sapiens, UniProt Q14833)", 6.01),
    ("O=C(Nc1ccc2c(NC3CC(F)(F)C3)nccc2c1)c1ccccn1", "mGluR4 (Homo sapiens, UniProt Q14833)", 6.15),
]

// for each molecule below, give its pEC50
1. O=C(Nc1ccc2c(OCC3CCOC3)nccc2c1)c1nc(Cl)ccc1F (stereo not drawn)
2. CC1COCC1COc1nccc2cc(NC(=O)c3ncccc3N)ccc12 (stereo not drawn)
3. CC(C)(C)OCCOc1nccc2cc(NC(=O)c3ncccc3O)ccc12
4. CC1(C)CC(COc2nccc3cc(NC(=O)c4ncccc4N)ccc23)CCO1 (stereo not drawn)
5. O=C(Nc1cc(F)c2c(OCC3CCOC3)nccc2c1)c1ncc(F)cc1F (stereo not drawn)
6. Nc1cccnc1C(=O)Nc1cc(F)c2c(OCC3COCCO3)nccc2c1 (stereo not drawn)

[6.09, 6.34, 6.31, 6.64, 6.81, 7.03]
